Assay System: T1, IL-18 binding protein (IL-18BP) (UniProt O95998 31-194)
T1 sequence (looked up): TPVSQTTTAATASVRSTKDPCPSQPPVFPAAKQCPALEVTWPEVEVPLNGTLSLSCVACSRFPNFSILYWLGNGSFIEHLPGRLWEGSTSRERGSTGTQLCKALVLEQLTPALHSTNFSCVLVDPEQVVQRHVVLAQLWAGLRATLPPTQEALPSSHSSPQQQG
Run Description: cell-based or functional assay
Test Readout: Ratio (-BP/+BP), DF-1000005
Lab note: record the figure alone, no unit after it.

Consider the following illustrative entries.
Binder: IL-18 variant G3P, E6K, D54Y, S55P, Q56H, T63S, N91S, R104Q (ligand) YFPKLKSKLSVIRNLNDQVLFIDQGNRPLFEDMTDSDMRDNAPRTIFIISMYKYPHPRGMAVSISVKSEKISTLSSENKIISFKEMNPPDSIKDTKSDIIFFQQSVPGHDNKMQFESSSYEGYFLASEKERDLFKLILKKEDELGDRSIMFTVQNED
Ratio (-BP/+BP), DF-1000005: 0.96
--
Binder: IL-18 variant G3P, E6K, D54Y, S55P, T63S, N91S, R104Q (ligand) YFPKLKSKLSVIRNLNDQVLFIDQGNRPLFEDMTDSDMRDNAPRTIFIISMYKYPQPRGMAVSISVKSEKISTLSSENKIISFKEMNPPDSIKDTKSDIIFFQQSVPGHDNKMQFESSSYEGYFLASEKERDLFKLILKKEDELGDRSIMFTVQNED
Ratio (-BP/+BP), DF-1000005: 0.97
--
Binder: IL-18 variant G3P, E6K, K53M, D54W, S55N, T63S, N91I (ligand) YFPKLKSKLSVIRNLNDQVLFIDQGNRPLFEDMTDSDMRDNAPRTIFIISMYMWNQPRGMAVSISVKSEKISTLSSENKIISFKEMNPPDIIKDTKSDIIFFQRSVPGHDNKMQFESSSYEGYFLASEKERDLFKLILKKEDELGDRSIMFTVQNED
Ratio (-BP/+BP), DF-1000005: 0.98
--
Binder: IL-18 variant G3D, E6Q, R27S, K53R, D54A, S55R, T63S, N91Q (ligand) YFDKLQSKLSVIRNLNDQVLFIDQGNSPLFEDMTDSDMRDNAPRTIFIISMYRARQPRGMAVSISVKSEKISTLSSENKIISFKEMNPPDQIKDTKSDIIFFQRSVPGHDNKMQFESSSYEGYFLASEKERDLFKLILKKEDELGDRSIMFTVQNED
Ratio (-BP/+BP), DF-1000005: 1.95
--
Binder: IL-18 variant N91S, R104H (ligand) YFGKLESKLSVIRNLNDQVLFIDQGNRPLFEDMTDSDMRDNAPRTIFIISMYKDSQPRGMAVTISVKSEKISTLSSENKIISFKEMNPPDSIKDTKSDIIFFQHSVPGHDNKMQFESSSYEGYFLASEKERDLFKLILKKEDELGDRSIMFTVQNED
Ratio (-BP/+BP), DF-1000005: 14.7
--
Binder: IL-18 variant G3P, E6H, D54A, S55P, Q56K, T63S, N91M (ligand) YFPKLHSKLSVIRNLNDQVLFIDQGNRPLFEDMTDSDMRDNAPRTIFIISMYKAPKPRGMAVSISVKSEKISTLSSENKIISFKEMNPPDMIKDTKSDIIFFQRSVPGHDNKMQFESSSYEGYFLASEKERDLFKLILKKEDELGDRSIMFTVQNED
Ratio (-BP/+BP), DF-1000005: 0.97
--
Binder: IL-18 variant G3P, E6R, D54W, S55Q, T63S, N91T, R104H (ligand) YFPKLRSKLSVIRNLNDQVLFIDQGNRPLFEDMTDSDMRDNAPRTIFIISMYKWQQPRGMAVSISVKSEKISTLSSENKIISFKEMNPPDTIKDTKSDIIFFQHSVPGHDNKMQFESSSYEGYFLASEKERDLFKLILKKEDELGDRSIMFTVQNED
Ratio (-BP/+BP), DF-1000005: 0.83
--
Binder: IL-18 variant G3Q, E6D, K53S, D54I, S55E, T63S, N91S, R104Q (ligand) YFQKLDSKLSVIRNLNDQVLFIDQGNRPLFEDMTDSDMRDNAPRTIFIISMYSIEQPRGMAVSISVKSEKISTLSSENKIISFKEMNPPDSIKDTKSDIIFFQQSVPGHDNKMQFESSSYEGYFLASEKERDLFKLILKKEDELGDRSIMFTVQNED
Ratio (-BP/+BP), DF-1000005: 0.73
--
Binder: IL-18 variant G3Q, E6G, D54N, S55H, T63V, N91M, R104T (ligand) YFQKLGSKLSVIRNLNDQVLFIDQGNRPLFEDMTDSDMRDNAPRTIFIISMYKNHQPRGMAVVISVKSEKISTLSSENKIISFKEMNPPDMIKDTKSDIIFFQTSVPGHDNKMQFESSSYEGYFLASEKERDLFKLILKKEDELGDRSIMFTVQNED
Ratio (-BP/+BP), DF-1000005: 1.09
--
Binder: IL-18 variant G3P, E6K, K53N, D54S, S55P, T63S, N91S, R104Q (ligand) YFPKLKSKLSVIRNLNDQVLFIDQGNRPLFEDMTDSDMRDNAPRTIFIISMYNSPQPRGMAVSISVKSEKISTLSSENKIISFKEMNPPDSIKDTKSDIIFFQQSVPGHDNKMQFESSSYEGYFLASEKERDLFKLILKKEDELGDRSIMFTVQNED
Ratio (-BP/+BP), DF-1000005: 0.92

Kindly note the recorded Ratio (-BP/+BP), DF-1000005 for IL-18 variant G3R, L5W, E6H, D54Y, Q56H, N91R (ligand) YFRKWHSKLSVIRNLNDQVLFIDQGNRPLFEDMTDSDMRDNAPRTIFIISMYKYSHPRGMAVTISVKSEKISTLSSENKIISFKEMNPPDRIKDTKSDIIFFQRSVPGHDNKMQFESSSYEGYFLASEKERDLFKLILKKEDELGDRSIMFTVQNED , which is 1.25

Kindly note the recorded Ratio (-BP/+BP), DF-1000005 for IL-18 variant G3V, E6Q, T34P, D54M, S55F, N91R, R104H (ligand) YFVKLQSKLSVIRNLNDQVLFIDQGNRPLFEDMPDSDMRDNAPRTIFIISMYKMFQPRGMAVTISVKSEKISTLSSENKIISFKEMNPPDRIKDTKSDIIFFQHSVPGHDNKMQFESSSYEGYFLASEKERDLFKLILKKEDELGDRSIMFTVQNED , which is 6.88

Kindly note the recorded Ratio (-BP/+BP), DF-1000005 for IL-18 variant G3Y, E6S, K53S, D54W, S55L, N91I (ligand) YFYKLSSKLSVIRNLNDQVLFIDQGNRPLFEDMTDSDMRDNAPRTIFIISMYSWLQPRGMAVTISVKSEKISTLSSENKIISFKEMNPPDIIKDTKSDIIFFQRSVPGHDNKMQFESSSYEGYFLASEKERDLFKLILKKEDELGDRSIMFTVQNED , which is 0.9
